Experiment notes: Microsomal stability assay, human liver microsomes
Type: in vitro ADME
Test conditions: human liver microsomes 0.5 mg/mL, 1 μM compound
Reported endpoint: CLINT human (mL/min/kg body weight)

Below are worked cases with known answers.
>>> val("O=C(N[C@@H](Cn1ccnc1)c1ccc(Cl)cc1Cl)c1ccc(-c2nnc(-c3ccc(-c4ccccn4)cc3)o2)cc1")
10.8
>>> val("O=C(N[C@@H](Cn1ccnc1)c1ccc(Cl)cc1Cl)c1ccc(-c2nnc(-c3cc(F)cc(OCC(F)(F)F)c3)o2)cc1")
11.3
>>> val("O=C(N[C@@H](Cn1ccnc1)c1ccc(Cl)cc1Cl)c1ccc(-c2nnc(-c3ccc(F)c(F)c3)o2)cc1")
7.53
>>> val("O=C(N[C@@H](Cn1ccnc1)c1ccc(Cl)cc1Cl)c1ccc(-c2nnc(-c3ccc(OCC(F)(F)F)cc3F)o2)cc1")
16.5
>>> val("O=C(N[C@@H](Cn1ccnc1)c1ccc(Cl)cc1Cl)c1ccc(-c2nnc(-c3cccc(-c4ccccn4)c3)o2)cc1")
13.1

(1) O=C(N[C@@H](Cn1ccnc1)c1ccc(Cl)cc1Cl)c1ccc(-c2nnc(-c3ccccc3)o2)cc1 [VNI, reference compound]
(2) O=C(N[C@@H](Cn1ccnc1)c1ccc(Cl)cc1Cl)c1ccc(-c2nnc(-c3ccc(-c4ccccn4)cc3F)o2)cc1
# compare CLINT human for 1 vs 2 ; return the one with the smaller value Pick one; state its label.
1
(1: 8.31 mL/min/kg body weight, 2: 15 mL/min/kg body weight)

###

Experiment notes: Microsomal stability assay, mouse liver microsomes
Type: in vitro ADME
Test conditions: mouse, microsomes
Reported endpoint: CLINT mouse (mL/min/kg body weight)

>>> val("O=C(N[C@@H](Cn1ccnc1)c1ccc(Cl)cc1Cl)c1ccc(-c2nnc(-c3cc(F)cc(OCC(F)(F)F)c3)o2)cc1")
84.7

(I) O=C(N[C@@H](Cn1ccnc1)c1ccc(Cl)cc1Cl)c1ccc(-c2nnc(-c3ccc(Cl)c(Cl)c3)o2)cc1
(II) CS(=O)(=O)c1ccc(-c2nnc(-c3ccc(C(=O)N[C@@H](Cn4ccnc4)c4ccc(Cl)cc4Cl)cc3)o2)cc1Cl
Form field 'greater CLINT mouse' accepts I or II ; which applies? Pick one; state its label.
I
(I: 107 mL/min/kg body weight, II: 56 mL/min/kg body weight)

###

Experiment notes: Microsomal stability assay, rat liver microsomes
Assay type: in vitro ADME
Test conditions: rat liver microsomes 0.5 mg/mL, 1 μM compound
Reported endpoint: CLINT rat (mL/min/kg body weight)

Below are worked cases with known answers.
>>> val("O=C(N[C@@H](Cn1ccnc1)c1ccc(Cl)cc1Cl)c1ccc(-c2nnc(-c3ccc(-c4ccccn4)cc3F)o2)cc1")
51.6
>>> val("O=C(N[C@@H](Cn1ccnc1)c1ccc(Cl)cc1Cl)c1ccc(-c2nnc(-c3cccc(-c4ccccn4)c3)o2)cc1")
68
>>> val("O=C(N[C@@H](Cn1ccnc1)c1ccc(Cl)cc1Cl)c1ccc(-c2nnc(-c3ccc(F)c(F)c3)o2)cc1")
31
>>> val("O=C(N[C@@H](Cn1ccnc1)c1ccc(Cl)cc1Cl)c1ccc(-c2nnc(-c3ccccc3)o2)cc1 [VNI, reference compound]")
26.4
>>> val("O=C(N[C@@H](Cn1ccnc1)c1ccc(Cl)cc1Cl)c1ccc(-c2nnc(-c3cc(F)cc(OCC(F)(F)F)c3)o2)cc1")
50.4

(A) O=C(N[C@@H](Cn1ccnc1)c1ccc(Cl)cc1Cl)c1ccc(-c2nnc(-c3ccc(-c4ccccn4)cc3)o2)cc1
(B) O=C(N[C@@H](Cn1ccnc1)c1ccc(Cl)cc1Cl)c1ccc(-c2nnc(-c3cc(F)cc(-c4ccccn4)c3)o2)cc1
(C) O=C(N[C@@H](Cn1ccnc1)c1ccc(Cl)cc1Cl)c1ccc(-c2nnc(-c3ccc(OCC(F)(F)F)cc3F)o2)cc1
# rank by CLINT rat, ascending (min first) Rank the items, then write their labels in that order.
B, C, A
